Assay: CO2 wash test of model fragrance A on cotton fabric (supercritical fluid extractor, GC FID)
Assay type: physicochemical
Conditions: fraction, from the wash test of Table 2
readout_kind: fraction left on fabric

O=C(OCc1ccccc1)c1ccccc1O [Benzyl Salicylate] :: 0.908
CC(C)=CCC/C(C)=C/CO :: 0.769
CC(=O)OC1CCC(C(C)(C)C)CC1 (centres unmarked) :: 0.687
CC(=O)c1c(C)c([N+](=O)[O-])c(C(C)(C)C)c([N+](=O)[O-])c1C :: 0.905
CC(=O)O[C@@H]1C[C@H]2CC[C@]1(C)C2(C)C (racemic) [Iso Bornyl Acetate] :: 0.741

====

Experiment: CO2 wash test of model fragrance A on cotton fabric (supercritical fluid extractor, GC FID)
Type: physicochemical
Conditions: fraction, from the wash test of Table 2
Tag: Y if measured fraction left on fabric is not below 0.8, N if it is.

C[C@@H]1CC[C@H]2C(C)(C)[C@H]3C[C@@]12CC[C@@]3(C)O :: Y
CC1=CCC2CC1C2(C)C (centres unmarked) :: Y
CC(=O)/C=C/C1C(C)=CCCC1(C)C (centres unmarked) :: N
O=C1CCCCCCCCCCCC(=O)OCCO1 [Ethylene Brassylate] :: Y

====

Assay: CO2 wash test of model fragrance A on cotton fabric (supercritical fluid extractor, GC FID)
Format: physicochemical
Conditions: supercritical CO2 43° C., 77 bar, density 0.25 g/ml; cotton fabric
Each record's class is read off its % Left on Fabric using these ranges: LOW: < 80%; MID: ≥ 80% and < 90%; HIGH: ≥ 90%

CC(=O)O[C@@H]1C[C@H]2CC[C@]1(C)C2(C)C (racemic) [Iso Bornyl Acetate] :: LOW
C=C1CCC2CC1C2(C)C (stereo not shown) :: HIGH
CC(=O)O[C@]1(C)CC[C@@]23C[C@@H]1C(C)(C)[C@@H]2CC[C@H]3C [Cedryl Acetate] :: MID
CC1=CCC2CC1C2(C)C (stereo not shown) :: HIGH
CC(C)CCOC(=O)c1ccccc1O [Iso Amyl Salicylate] :: LOW
CC(=O)/C=C/C1C(C)=CCCC1(C)C (stereo not shown) :: LOW
CCCCC/C(C=O)=C/c1ccccc1 :: MID
O=C1CCCCCCCCCCCC(=O)OCCO1 [Ethylene Brassylate] :: HIGH
CCCCCCC(C=O)=Cc1ccccc1 :: MID
C=C(C)[C@H]1CC=C(C)CC1 :: HIGH
O=c1ccc2ccccc2o1 :: HIGH
OCCc1ccccc1 :: MID

====

% Left on Fabric overview
Test: CO2 wash test of model fragrance A on cotton fabric (supercritical fluid extractor, GC FID)
Assay type: physicochemical
Conditions: supercritical CO2 43° C., 77 bar, density 0.25 g/ml; cotton fabric
readout_kind: % Left on Fabric (%)

CC(=O)c1c(C)c([N+](=O)[O-])c(C(C)(C)C)c([N+](=O)[O-])c1C [Musk Ketone] :: 91
CC(C=O)Cc1ccc(C(C)(C)C)cc1 (stereo not shown) [Lilial] :: 78
C=CCc1ccc(O)c(OC)c1 [Eugenol] :: 79
O=C(OCc1ccccc1)c1ccccc1O [Benzyl Salicylate] :: 91
